biological target: dopamine D1-receptor (Homo sapiens, UniProt P21728); experiment: Safety pharmacology panel (SafetyScan E/IC50 ELECT); details: minor activity; 78-target panel
Sequence (P21728 whole entry): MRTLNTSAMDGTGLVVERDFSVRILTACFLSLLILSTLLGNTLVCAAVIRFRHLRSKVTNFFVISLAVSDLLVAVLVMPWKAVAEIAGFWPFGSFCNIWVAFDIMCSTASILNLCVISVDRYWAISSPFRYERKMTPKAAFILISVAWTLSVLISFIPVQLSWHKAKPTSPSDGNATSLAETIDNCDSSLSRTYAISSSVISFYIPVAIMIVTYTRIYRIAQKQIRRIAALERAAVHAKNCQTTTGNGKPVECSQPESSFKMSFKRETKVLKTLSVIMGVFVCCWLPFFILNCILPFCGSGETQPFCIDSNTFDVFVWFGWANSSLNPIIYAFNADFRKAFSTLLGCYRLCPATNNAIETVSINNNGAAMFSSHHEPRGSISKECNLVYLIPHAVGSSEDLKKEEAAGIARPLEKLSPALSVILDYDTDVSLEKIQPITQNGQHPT
pIC50: −log10 of the molar value.
reported endpoint: pIC50

Exam item: Report measured pIC50 on dopamine D1-receptor (Homo sapiens, UniProt P21728); entry: O=C(Cn1nccc(Cl)c1=O)c1ccc(Cl)cc1Cl [Compound 24]
Marked response: < 5.22

The origin of these recorded values is patent US20240300904A1.
